Tested on: MV-4-11 cells
Experiment: Antiproliferative activity, CCK-8 assay
Type: cell-based
Conditions: Homo sapiens, MV4-11; 144 hours incubation, CCK-8, absorbance at 450 nm
resultType: IC50

>  <compound>
Nc1cccc2c1C(=O)N(C1CCC(=O)NC1=O)C2=O (centres unmarked) [Pomalidomide, reference compound]

>  <resultType>
IC50

>  <result>
> 10 µM

$$$$
>  <compound>
CN1Cc2c(cccc2[N+](=O)[O-])C(=O)N1C1CCC(=O)NC1=O (centres unmarked)

>  <resultType>
IC50

>  <result>
0.39 µM

$$$$
>  <compound>
CN1Cc2c(NCc3ccc(CN4CCOCC4)cc3)cccc2C(=O)N1C1CCC(=O)NC1=O (centres unmarked)

>  <resultType>
IC50

>  <result>
3.43 µM

$$$$
>  <compound>
CN1Cc2cc([N+](=O)[O-])ccc2C(=O)N1C1CCC(=O)NC1=O (centres unmarked)

>  <resultType>
IC50

>  <result>
0.294 µM

$$$$
>  <compound>
CN1Cc2c(NCc3ccc(CN4CCN(C(=O)OC(C)(C)C)CC4)cc3)cccc2C(=O)N1C1CCC(=O)NC1=O (centres unmarked)

>  <resultType>
IC50

>  <result>
0.174 µM

$$$$
>  <compound>
CN1Cc2c(NCc3ccc(CN4CCN(c5ccc(C#N)cc5)CC4)cc3)cccc2C(=O)N1C1CCC(=O)NC1=O (centres unmarked)

>  <resultType>
IC50

>  <result>
0.0155 µM

$$$$
>  <compound>
CN1Cc2c(cc(F)cc2[N+](=O)[O-])C(=O)N1C1CCC(=O)NC1=O (centres unmarked)

>  <resultType>
IC50

>  <result>
> 10 µM

$$$$
>  <compound>
CN1Cc2cc(N)ccc2C(=O)N1C1CCC(=O)NC1=O (centres unmarked)

>  <resultType>
IC50

>  <result>
0.215 µM

$$$$
>  <compound>
CN1Cc2c(NCc3ccc(CN4CCN(c5ccc(C#N)c(F)c5)CC4)cc3)cccc2C(=O)N1C1CCC(=O)NC1=O (centres unmarked)

>  <resultType>
IC50

>  <result>
0.0058 µM

$$$$
>  <compound>
CN1Cc2c(NCc3ccc(CN4CCN(c5ccc(F)cc5)CC4)cc3)cccc2C(=O)N1C1CCC(=O)NC1=O (centres unmarked)

>  <resultType>
IC50

>  <result>
0.0311 µM

$$$$
>  <compound>
CNc1cccc2c1CN(C)N(C1CCC(=O)NC1=O)C2=O (centres unmarked)

>  <resultType>
IC50

>  <result>
> 10 µM

$$$$
>  <compound>
CN1Cc2c(N)cccc2C(=O)N1C1CCC(=O)NC1=O (centres unmarked)

>  <resultType>
IC50

>  <result>
0.183 µM

$$$$
>  <compound>
CN1Cc2c(N)cc(F)cc2C(=O)N1C1CCC(=O)NC1=O (centres unmarked)

>  <resultType>
IC50

>  <result>
0.874 µM

$$$$
>  <compound>
CN1Cc2c(NCc3ccc(CN4CCN(c5ccccc5)CC4)cc3)cccc2C(=O)N1C1CCC(=O)NC1=O (centres unmarked)

>  <resultType>
IC50

>  <result>
1.39 µM

$$$$

---

# Lookup of reported IC50 keyed by entry
Test system: RPMI-8226 cells
Assay: Antiproliferative activity, CCK-8 assay
Type: cell-based
Details: Homo sapiens, 144 hours incubation, CCK-8, absorbance at 450 nm
Procedure: The cell models used in this example were human hematologic tumor cells, including NCI-H929, RPMI-8226, MV-4-11, U937 and WSU-DLCL-2. Some of the compounds of the present invention were selected to determine their inhibitory activity against the proliferation of NCI-H929, RPMI-8226, MV-4-11, U937, and WSU-DLCL-2 cells. • ① The selected compounds were dissolved in DMSO to prepare 10 mM stock solutions. […]

>  <molecule>
CN1Cc2c(NCc3ccc(CN4CCN(c5ccc(F)cc5)CC4)cc3)cccc2C(=O)N1C1CCC(=O)NC1=O (stereo not shown)

>  <experimentalSystem>
RPMI-8226 cells

>  <readoutUnits>
µM

>  <IC50>
1.26

$$$$
>  <molecule>
CN1Cc2c(cc(F)cc2[N+](=O)[O-])C(=O)N1C1CCC(=O)NC1=O (stereo not shown)

>  <experimentalSystem>
RPMI-8226 cells

>  <readoutUnits>
µM

>  <IC50>
0.204

$$$$
>  <molecule>
CN1Cc2c(NCc3ccc(CN4CCN(c5ccc(C#N)cc5)CC4)cc3)cccc2C(=O)N1C1CCC(=O)NC1=O (stereo not shown)

>  <experimentalSystem>
RPMI-8226 cells

>  <readoutUnits>
µM

>  <IC50>
0.442

$$$$
>  <molecule>
CNc1cccc2c1CN(C)N(C1CCC(=O)NC1=O)C2=O (stereo not shown)

>  <experimentalSystem>
RPMI-8226 cells

>  <readoutUnits>
µM

>  <IC50>
8.31

$$$$
